experiment: Phase 1 single ascending dose (SAD) trial, plasma pharmacokinetics (Part 1); conditions: male, human, in vivo, po, 90 mg, Tmax, human plasma; Regimen F: 90 mg TQS-168 SDD oral suspension, fed (high fat breakfast), single dose; median

[
  {
    "given-smiles": "CC(C)(C)c1ccc(-c2nc3ccccc3[nH]2)cc1",
    "unit-of-measurement": "h",
    "Tmax": 1.5
  }
]

----------
test: Phase 1 single ascending dose (SAD) trial, plasma pharmacokinetics (Part 1); details: male, human, in vivo, po, 180 mg, Cmax, human plasma; Regimen B: 180 mg TQS-168 MC oral suspension, fasted, single dose

[
  {
    "compound": "CC(C)(C)c1ccc(-c2nc3ccccc3[nH]2)cc1 [TQS-168, 2-(4-tert-butylphenyl)-1H-benzimidazole]",
    "Cmax [nM]": 210
  }
]

----------
assay: Tissue concentrations (plasma, brain, liver) after single oral dose 25 mg/kg in mice; assay type: in vivo; conditions: male, C57BL6/J, mouse, liver, po, 25 mg/kg, 25 mg/kg p.o., 60.0 minutes, average, read-out: concentration in liver
quantity-measured: concentration at 60 min

[
  {
    "compound": "CC(C)(C)c1ccc(-c2nc3ccccc3[nH]2)cc1 [TQS-168, 2-(4-tert-butylphenyl)-1H-benzimidazole]",
    "reported-result": "1.98 µg/mL"
  }
]

----------
assay: Phase 1 multiple dose trial, plasma pharmacokinetics (Part 2); conditions: male, human, in vivo, 90 mg, AUC(0-tau), Regimen J, 90 mg TQS-168 SDD QD, fed; Day 7; tau = 24 h; geometric mean

[
  {
    "given-smiles": "CC(C)(C)c1ccc(-c2nc3ccccc3[nH]2)cc1",
    "AUC [ng·h/mL]": 227
  }
]

----------
assay: Plasma concentrations of TQS-168 and TQS-621 after single oral dose 50 mg/kg in mice, three formulations; type: in vivo; settings: male, C57BL/6, mouse, plasma, po, 50 mg/kg, mice, 50 mg/kg p.o., Group 1 (suspension, methylcellulose in PBS), 0.25 hr, individual mouse; read-out: Calculated Concentration in plasma

[
  {
    "given-smiles": "CC(C)(C)c1ccc(-c2nc3ccccc3[nH]2)cc1",
    "concentration at 0.25 h (ng/mL)": 586
  }
]

----------
test: Phase 1 multiple dose trial, plasma pharmacokinetics (Part 2); details: male, human, in vivo, 90 mg, Cmax, human plasma; Regimen J: 90 mg TQS-168 SDD QD 7 days, fed; Day 1
quantity-measured: Cmax (nM)

[
  {
    "compound": "CC(C)(C)c1ccc(-c2nc3ccccc3[nH]2)cc1 [TQS-168, 2-(4-tert-butylphenyl)-1H-benzimidazole]",
    "reported-result": 190
  }
]

----------
test: clinical; conditions: male, human, in vivo, po, 270 mg, Tmax
quantity-measured: Tmax (h)

[
  {
    "molecule": "CC(C)(C)c1ccc(-c2nc3cc(O)ccc3[nH]2)cc1 [TQS-621]",
    "quantity-measured": "Tmax",
    "unit-of-measurement": "h",
    "reported-result": 2
  }
]

----------
assay: Plasma concentrations of TQS-168 and TQS-621 after single oral dose 50 mg/kg in mice, three formulations; assay type: in vivo; details: male, C57BL/6, mouse, plasma, po, 50 mg/kg, mice, 50 mg/kg p.o., Group 1 (suspension, methylcellulose in PBS), 4 hr, mean; read-out: Calculated Concentration in plasma

[
  {
    "given-smiles": "CC(C)(C)c1ccc(-c2nc3ccccc3[nH]2)cc1",
    "unit-of-measurement": "ng/mL",
    "concentration at 4 h": 435
  }
]

----------
assay: Phase 1 single ascending dose (SAD) trial, plasma pharmacokinetics (Part 1); details: male, human, in vivo, po, 90 mg, Cmax, human plasma; Regimen G: 90 mg TQS-168 SDD oral suspension, fasted, single dose; geometric mean
quantity-measured: Cmax

[
  {
    "given-smiles": "CC(C)(C)c1ccc(-c2nc3ccccc3[nH]2)cc1",
    "reported-result": "111 ng/mL"
  }
]

----------
assay: clinical; settings: male, human, in vivo, po, 540 mg, Tmax

[
  {
    "given-smiles": "CC(C)(C)c1ccc(-c2nc3cc(O)ccc3[nH]2)cc1",
    "Tmax": "4 h"
  }
]

----------
assay: Tissue concentrations (plasma, brain, liver) after single oral dose 25 mg/kg in mice; format: in vivo; conditions: male, C57BL6/J, mouse, plasma, po, 25 mg/kg, 25 mg/kg p.o., 480.0 minutes, average, read-out: concentration in plasma
quantity-measured: concentration at 480 min (ng/mL)

[
  {
    "given-smiles": "CC(C)(C)c1ccc(-c2nc3ccccc3[nH]2)cc1",
    "quantity-measured": "concentration at 480 min",
    "unit-of-measurement": "ng/mL",
    "reported-result": 5.3
  }
]

----------
experiment: Plasma concentrations of TQS-168 and TQS-621 after single oral dose 50 mg/kg in mice, three formulations; type: in vivo; details: male, C57BL/6, mouse, plasma, po, 50 mg/kg, mice, 50 mg/kg p.o., Group 1 (suspension, methylcellulose in PBS), 4 hr, individual mouse; read-out: Calculated Concentration in plasma
quantity-measured: concentration at 4 h

[
  {
    "given-smiles": "CC(C)(C)c1ccc(-c2nc3ccccc3[nH]2)cc1",
    "quantity-measured": "concentration at 4 h",
    "reported-result": "435 ng/mL"
  }
]

----------
Here the recorded Tmax is given for each entry.
assay: Plasma concentrations of TQS-168 and TQS-621 after single oral dose 50 mg/kg in mice, three formulations; type: in vivo; conditions: male, C57BL/6, mouse, plasma, po, 50 mg/kg, mice plasma, TQS-168 50 mg/kg p.o., Group 1 (suspension, 0.5% methylcellulose in PBS), individual mouse; read-out: tmax

[
  {
    "compound": "CC(C)(C)c1ccc(-c2nc3cc(O)ccc3[nH]2)cc1 [TQS-621]",
    "unit-of-measurement": "h",
    "Tmax": 1
  },
  {
    "compound": "CC(C)(C)c1ccc(-c2nc3ccccc3[nH]2)cc1 [TQS-168, 2-(4-tert-butylphenyl)-1H-benzimidazole]",
    "unit-of-measurement": "h",
    "Tmax": 1
  }
]

----------
assay: clinical; conditions: male, human, in vivo, po, 270 mg, AUC(0-last)
quantity-measured: AUC(0-t) (ng·h/mL)

[
  {
    "given-smiles": "CC(C)(C)c1ccc(-c2nc3cc(O)ccc3[nH]2)cc1",
    "quantity-measured": "AUC(0-t)",
    "reported-result": 4760
  }
]

----------
assay: Phase 1 single ascending dose (SAD) trial, plasma pharmacokinetics (Part 1); conditions: male, human, in vivo, po, 180 mg, Cmax, human plasma; Regimen E: 180 mg TQS-168 HME oral suspension, fasted, single dose; geometric mean
quantity-measured: Cmax (ng/mL)

[
  {
    "compound": "CC(C)(C)c1ccc(-c2nc3ccccc3[nH]2)cc1 [TQS-168, 2-(4-tert-butylphenyl)-1H-benzimidazole]",
    "quantity-measured": "Cmax",
    "reported-result": 123
  }
]

----------
experiment: Plasma concentrations of TQS-168 and TQS-621 after single oral dose 50 mg/kg in mice, three formulations; type: in vivo; conditions: male, C57BL/6, mouse, plasma, po, 50 mg/kg, mice, 50 mg/kg p.o., Group 2 (solution, PEG 400/Kleptose/water), 8 hr, mean; read-out: Calculated Concentration in plasma
quantity-measured: concentration at 8 h (ng/mL)

[
  {
    "given-smiles": "CC(C)(C)c1ccc(-c2nc3ccccc3[nH]2)cc1",
    "quantity-measured": "concentration at 8 h",
    "unit-of-measurement": "ng/mL",
    "reported-result": 427
  }
]

----------
test: Tissue concentrations (plasma, brain, liver) after single oral dose 25 mg/kg in mice; type: in vivo; settings: male, C57BL6/J, mouse, brain, po, 25 mg/kg, 25 mg/kg p.o., 120.0 minutes, individual animal
quantity-measured: concentration at 120 minutes

[
  {
    "molecule": "CC(C)(C)c1ccc(-c2nc3ccccc3[nH]2)cc1 [TQS-168, 2-(4-tert-butylphenyl)-1H-benzimidazole]",
    "reported-result": "270 ng/mL"
  }
]

----------
assay: Phase 1 multiple dose trial, plasma pharmacokinetics (Part 2); conditions: male, human, in vivo, 90 mg, AUC(0-tau), human plasma; Regimen J: 90 mg TQS-168 SDD QD 7 days, fed; Day 7; geometric mean
quantity-measured: AUC (ng·h/mL)

[
  {
    "given-smiles": "CC(C)(C)c1ccc(-c2nc3ccccc3[nH]2)cc1",
    "quantity-measured": "AUC",
    "reported-result": 227
  }
]

----------
assay: Plasma concentrations of TQS-168 and TQS-621 after single oral dose 50 mg/kg in mice, three formulations; assay type: in vivo; settings: male, C57BL/6, mouse, plasma, po, 50 mg/kg, mice plasma, TQS-168 50 mg/kg p.o., Group 3 (suspension, Labrafil/Masine/Miglyol/water), individual mouse
This section presents compounds with their documented AUC(0-t) values.

[
  {
    "given-smiles": "CC(C)(C)c1ccc(-c2nc3cc(O)ccc3[nH]2)cc1",
    "unit-of-measurement": "µg·h/mL",
    "AUC(0-t)": 0.564
  },
  {
    "given-smiles": "CC(C)(C)c1ccc(-c2nc3ccccc3[nH]2)cc1",
    "unit-of-measurement": "µg·h/mL",
    "AUC(0-t)": 4.11
  }
]
